Organism: Homo sapiens
Experiment: Selectivity ratio, Ki for human CB1 receptor to Ki for human CB2 receptor
quantityKind: Ratio Ki
Answer as a number with no unit attached.

Answered examples (8):
>>> testvalue("Cc1cc(NC(=O)C(C)(C(F)(F)F)C(F)(F)F)cc(CN2CCOCC2)c1C")
190
>>> testvalue("Cc1ccc(C(=O)NC2C(C)(C)[C@@H]3CC[C@@]2(C)C3)cc1S(=O)(=O)N1CCOCC1 (some centres not stated)")
31
>>> testvalue("Cc1cc(NC(=O)C2CCCCC2C)cc(CN2CCOCC2)c1C (configuration not stated)")
63
>>> testvalue("Cc1ccc(C(=O)NC2C3(C)CCC(C3)C2(C)C)cc1CC(=O)N1CCOCC1 (configuration not stated)")
5.6
>>> testvalue("Cc1ccc(C(=O)NC2C(C)(C)[C@@H]3CC[C@@]2(C)C3)cc1CN1CCOCC1 (some centres not stated)")
58
>>> testvalue("Cc1ccc(C(=O)NC2C(C)(C)[C@@H]3CC[C@@]2(C)C3)cc1CCCN1CCOCC1 (some centres not stated)")
34
>>> testvalue("Cc1ccc(C(=O)NC2C(C)(C)[C@@H]3CC[C@@]2(C)C3)cc1N1CCOCC1 (some centres not stated)")
30
>>> testvalue("Cc1c(CN2CCOCC2)cc(NC(=O)C2CCCCC2C)cc1C(F)(F)F (configuration not stated)")
6.5

**Q:** Endpoint output: Ratio Ki of Cc1ccc(C(=O)NC2C(C)(C)[C@@H]3CC[C@@]2(C)C3)cc1CCC(=O)N1CCOCC1 (some centres not stated) . Value?
**A:** 20

**Q:** And Cc1ccc(C(=O)NC2C(C)(C)[C@@H]3CC[C@@]2(C)C3)cc1CCN1CCOCC1 (some centres not stated) ?
**A:** 31

**Q:** # repeat for Cc1ccc(NC(=O)C2CCCCC2C)cc1CN1CCOCC1 (configuration not stated)
**A:** 23

**Q:** And what about the molecule Cc1ccc(NC(=O)C(C)(C(F)(F)F)C(F)(F)F)cc1CN1CCOCC1 ?
**A:** 390

====

Let's look at some compounds and their measured EC50.
Target: Cannabinoid receptor 2 (Homo sapiens, UniProt P34972)
Sequence (P34972 whole entry): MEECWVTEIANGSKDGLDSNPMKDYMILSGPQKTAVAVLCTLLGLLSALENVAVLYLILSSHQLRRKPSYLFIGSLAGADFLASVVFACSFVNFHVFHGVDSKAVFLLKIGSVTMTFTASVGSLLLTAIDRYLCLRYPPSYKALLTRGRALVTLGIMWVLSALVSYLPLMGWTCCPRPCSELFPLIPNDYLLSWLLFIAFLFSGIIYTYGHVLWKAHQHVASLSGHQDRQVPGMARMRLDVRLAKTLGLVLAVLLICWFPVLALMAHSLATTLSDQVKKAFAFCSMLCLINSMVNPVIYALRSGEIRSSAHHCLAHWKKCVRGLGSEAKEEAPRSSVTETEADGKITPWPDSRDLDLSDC
Assay: Agonist activity at human CB2 receptor expressed in CHO cells by [35S]GTPgammaS binding assay
Numeric only. Scale: nM

**Q:** Which EC50 value belongs to CC(C(=O)Nc1ccc2c(c1)C(N1CCOCC1)CCC2)(C(F)(F)F)C(F)(F)F (single isomer, unassigned; enantiomer 2) ?
**A:** 72

**Q:** Then what about the compound Cc1ccc(C(=O)NC2C(C)(C)[C@@H]3CC[C@@]2(C)C3)cc1CCN1CCOCC1 (stereo partly drawn) ?
**A:** 64

**Q:** Please do the same for Cc1ccc(C(=O)NC2C(C)(C)[C@@H]3CC[C@@]2(C)C3)cc1CCCN1CCOCC1 (stereo partly drawn) as well.
**A:** 110

Origin of the recorded values: ChEMBL document CHEMBL1155343
